FYI, the data here is from ChEMBL document CHEMBL2169762.

Overview of reported efflux ratio across a group of molecules:
- Tested on: human MDR1
- experiment: Efflux ratio of permeability in pig LLC-PK1 cells expressing human MDR1
- Format: ADME, cell-based, Sus scrofa
Answer with a number only.

Sample answers from the record:
entry.smiles	target.or.system	measurement.name	reported.measurement
CC(C)(C)Cc1cnc2c(c1)[C@@H](NC[C@@H](O)[C@H](Cc1ccc(F)cc1)NC(=O)c1cccnc1)CC1(CCC1)O2	human MDR1	efflux ratio	50
COCC(=O)N[C@@H](Cc1ccc(F)cc1)[C@H](O)CN[C@H]1CC2(CCC2)Oc2ncc(CC(C)(C)C)cc21	human MDR1	efflux ratio	11
CC(C)(C)Cc1cnc2c(c1)[C@@H](NC[C@@H](O)[C@H](Cc1ccc(F)cc1)NC(=O)c1cccnc1F)CC1(CCC1)O2	human MDR1	efflux ratio	1.6
CC(=O)N[C@@H](Cc1ccc(F)cc1)[C@H](O)CN[C@H]1CC2(CCC2)Oc2ncc(CC(C)(C)C)cc21	human MDR1	efflux ratio	17
CO[C@H](C)C(=O)N[C@@H](Cc1ccc(F)cc1)[C@H](O)CN[C@H]1CC2(CCC2)Oc2ncc(CC(C)(C)C)cc21	human MDR1	efflux ratio	5

Next molecule, please.
GET /values?readout=efflux ratio&system=human MDR1&item= `CC(C)(C)Cc1cnc2c(c1)[C@@H](NC[C@@H](O)[C@H](Cc1ccc(F)cc1)NC(=O)c1cncc(F)c1)CC1(CCC1)O2` 20
